Give measured Kd for each item. Keep answers brief.
molecular target: T1, cynomolgus PD-L1, his tagged (cPD-L1-his) (cynomolgus (Macaca fascicularis), UniProt G7PSE7 19-238); assay: BLI (ForteBio Octet), IgG on AHC sensor, cPD-L1-his analyte, 1:1 fit
T1 construct: also called cyPD-L1-His; Cyno PD-L1
T1 sequence (G7PSE7 entry or part of it limits assumed, form in doubt): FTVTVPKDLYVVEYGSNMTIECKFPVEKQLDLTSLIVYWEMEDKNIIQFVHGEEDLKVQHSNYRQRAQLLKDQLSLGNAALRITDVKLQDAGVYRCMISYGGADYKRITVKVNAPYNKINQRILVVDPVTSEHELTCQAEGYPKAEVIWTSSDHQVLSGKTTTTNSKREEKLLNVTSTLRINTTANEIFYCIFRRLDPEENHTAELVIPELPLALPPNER
Reply numerically in nM, unit not repeated.

Request: // Input: Avelumab (antibody, human IgG1, lambda, V domains shown) VH: EVQLLESGGGLVQPGGSLRLSCAASGFTFSSYIMMWVRQAPGKGLEWVSSIYPSGGITFYADTVKGRFTISRDNSKNTLYLQMNSLRAEDTAVYYCARIKLGTVTTVDYWGQGTLVTVSS VL: QSALTQPASVSGSPGQSITISCTGTSSDVGGYNYVSWYQQHPGKAPKLMIYDVSNRPSGVSNRFSGSKSGNTASLTISGLQAEDEADYYCSSYTSSSTRVFGTGTKVTVLG . Output its Kd only.
Result: 0.994

Request: // Input: 788-hIgG1 (chimeric PAL788) (antibody, V domains shown) VH: QVQLQQPGAELVKPGASVKLSCKASGYTFTSNWMNWVKQRPGRGLEWIGRIHPSDSETHYHQKFKSKATLTVDKSSSTAYIQLSSLTSEDSAVYYCAHSSGDYGRDYWGQGTTLTVSS VL: NIVLTQSPASLAVSLGQRATISCRASESVDSYGNSFMHWYQQKPGQPPKLLIYLASNLQSGVPARFSGSGSRTDFTLTIDPVEADDAATYYCQQNNEDPWTFGGGTKLEIK . Output its Kd only.
Result: 0.867

Request: // Input: 752-hIgG1 (chimeric PAL752) (antibody, V domains shown) VH: EVQLQESGAELARPGASVKLSCKASGHAFTSDSINWVKQRIGQGLEWIGEIYPRSGNPYYNEKFKGKATLTADKSSSTAYMELRSLTSEDSAVYFCATDYYGRYFDVWGTGTTVTVSS VL: DIQMTQSSFSFSVSLGDRVTIICKASEDIYNRLAWYQQKPGNTPRLLISGATSLETGVPSRFSGSGSGKDYTLSITSLQTEDVATYYCQQYWSTPWTFGGGTKLEIK . Output its Kd only.
Result: 3.18
